Measured values drawn from patent US7118895B2 for this set.

Tested on: Crude diglycosidase
Experiment: Examination of temperature in the conversion into isoflavone aglycons by diglycosidase using soybean materials
Type: biochemical, Penicillium multicolor IAM7153
Set-up: concentration or dose not given beside the values
Conditions: 65° C., heat treatment of enzyme no, reaction time 3 h
Description: Into 400 μL of 20 mM acetate buffer of pH 4.0 was suspended 50 mg of each of various soybean materials (roasted soy flour (manufactured by Fuji Shokuryo K.K.), soymilk (manufactured by Gitoh Shokuhin K.K.), defatted soybean (manufactured by Fuji Seiyu K.K.), concentrated soybean protein (manufactured by Fuji Seiyu K.K.)), whereby a substrate solution was prepared. Crude diglycosidase was diluted with 20 mM acetate buffer of pH 4.0 to be the glycosidase activity of 1.88 AU/mL. […]
parameter: Decomposition efficiency of glycitin family in defatted soybean (%)

[[record]]
molecular_string = "COc1cc2c(=O)c(-c3ccc(O)cc3)coc2cc1O"
result_unit = "%"
assay_result = 57.9

[[record]]
molecular_string = "COc1cc2c(=O)c(-c3ccc(O)cc3)coc2cc1O[C@@H]1O[C@H](COC(=O)CC(=O)O)[C@@H](O)[C@H](O)[C@H]1O"
result_unit = "%"
assay_result = 42.1

